Below, each entry is listed alongside its reported inhibition at 0.111 µM.
- assayed.target: human 11β-HSD1 (Homo sapiens)
- Construct: expressed in transfected cells; host or cells: CHO cells (microsomes)
- Sequence (P28845 whole entry): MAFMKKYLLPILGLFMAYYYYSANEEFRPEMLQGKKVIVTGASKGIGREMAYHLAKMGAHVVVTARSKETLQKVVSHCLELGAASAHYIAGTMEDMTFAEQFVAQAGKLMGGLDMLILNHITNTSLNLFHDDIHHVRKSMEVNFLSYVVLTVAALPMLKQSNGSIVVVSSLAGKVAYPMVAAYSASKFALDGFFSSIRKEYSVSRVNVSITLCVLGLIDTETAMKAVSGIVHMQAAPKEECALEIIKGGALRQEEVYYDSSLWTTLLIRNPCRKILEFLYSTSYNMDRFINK
- method.description: Inhibition of microsomal preparation of 11β-HSD1 (SPA, Biological Test Example 1)
- Assay type: biochemical
- assay.context: 111 nM
A number alone suffices; assume %.

Tell me reported inhibition at 0.111 µM for CCOC(=O)CC1CC2(CCN(C(=O)NCc3c(C)cccc3Cl)CC2)c2c(Br)cccc21 (centres unmarked) , tested with human 11β-HSD1 (Homo sapiens). 61.2

Item: CN1C(=O)c2cccc(Cl)c2C12CCN(C(=O)CCc1ccccc1C(F)(F)F)CC2 Test system: human 11β-HSD1 (Homo sapiens) Read-out: inhibition at 0.111 µM Value: ? 96.7
